For each entry below, report its pIC50 value.
Target: protein kinase C zeta (Homo sapiens, UniProt Q05513)
Sequence (Q05513 whole entry): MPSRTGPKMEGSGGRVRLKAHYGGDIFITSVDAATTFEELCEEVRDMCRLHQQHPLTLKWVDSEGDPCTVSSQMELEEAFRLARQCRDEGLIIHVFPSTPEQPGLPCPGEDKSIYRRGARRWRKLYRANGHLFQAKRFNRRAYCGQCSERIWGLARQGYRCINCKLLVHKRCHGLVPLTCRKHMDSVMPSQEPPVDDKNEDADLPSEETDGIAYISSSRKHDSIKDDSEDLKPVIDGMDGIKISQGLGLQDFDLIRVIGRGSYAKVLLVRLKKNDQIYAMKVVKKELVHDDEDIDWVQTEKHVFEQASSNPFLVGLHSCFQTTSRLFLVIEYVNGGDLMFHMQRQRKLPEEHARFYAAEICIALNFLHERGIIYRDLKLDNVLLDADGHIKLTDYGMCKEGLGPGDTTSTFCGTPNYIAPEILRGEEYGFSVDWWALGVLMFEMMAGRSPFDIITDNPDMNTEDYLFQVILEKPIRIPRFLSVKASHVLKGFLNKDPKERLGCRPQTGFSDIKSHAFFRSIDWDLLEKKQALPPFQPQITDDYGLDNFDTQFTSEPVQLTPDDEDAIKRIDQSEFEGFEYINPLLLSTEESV
Assay: PKC Enzyme assay, zeta isozyme
Assay type: biochemical
Conditions: PKC zeta; 30 μM ATP, 30° C., 10 minutes; read-out: IC50 ζ
Numbers only, as −log10 of the molar value.

Take a look at these entries with their results.
[[record]]
molecule = "Cc1c(C2=C(c3cn(CN(C)C)c4ccccc34)C(=O)NC2=O)c2ccccc2n1CCCN(C)C [Example 15]"
assay_endpoint = "pIC50"
test_value = 4.43

[[record]]
molecule = "CN1CCC(Cn2cc(C3=C(c4cn(C)c5ccccc45)C(=O)NC3=O)c3ccccc32)CC1 [Example 68]"
assay_endpoint = "pIC50"
test_value = 5.01

[[record]]
molecule = "Cn1cc(C2=C(c3cn(CCOC4O[C@H](CO)[C@@H](O)[C@@H](O)[C@H]4N=[N+]=[N-])c4ccccc34)C(=O)NC2=O)c2ccccc21 (stereo partly shown) [Example 60]"
assay_endpoint = "pIC50"
test_value = 4.12

[[record]]
molecule = "CC(C)N1CCC(n2cc(C3=C(c4cn(C)c5ccccc45)C(=O)NC3=O)c3ccccc32)CC1 [Example 8]"
assay_endpoint = "pIC50"
test_value = 5.03

[[record]]
molecule = "CC(=O)NCC1OC(OCCCCn2cc(C3=C(c4cn(C)c5ccccc45)C(=O)NC3=O)c3ccccc32)CC1OC(C)=O (stereo not shown) [Example 55]"
assay_endpoint = "pIC50"
test_value = 4.35


Please find the next molecule below.
pIC50 for CC(=O)N1CCC(n2cc(C3=C(c4cn(C)c5ccccc45)C(=O)NC3=O)c3ccccc32)CC1 [Example 37] is 4.70
